System: ONS-76
assay.protocol: Cytotoxicity against human ONS-76 cells assessed as reduction in cell viability incubated for 72 hrs by MTT assay
Format: functional, cell-based
test.settings: ONS-76, 72 h
Recorded IC50 for the following compounds

Worked set:
COc1cc(NC(=O)Nc2cccc3ccccc23)cc(OC)c1OC ... 2.45 µM
COc1cc(N(C)C(=O)c2ccc([N+](=O)[O-])cc2)cc(OC)c1OC ... ≥ 125 µM
COc1cc(NC(=O)Nc2c3ccccc3cc3ccccc23)cc(OC)c1OC ... 10 µM
COc1cc(N(C)C(=O)N(C)c2cccc(F)c2)cc(OC)c1OC ... ≥ 125 µM
COc1cc(N(C)C(=O)N(C)c2cccc3ccccc23)cc(OC)c1OC ... ≥ 125 µM
COc1cc(N(C)C(=O)c2ccccc2)cc(OC)c1OC ... ≥ 125 µM
COc1cc(NC(=O)c2cccc3ccccc23)cc(OC)c1OC ... 26.8 µM
COc1cc(N(C)C(=O)N(C)c2cccc([N+](=O)[O-])c2)cc(OC)c1OC ... ≥ 125 µM
COc1cc(N(C)C(=O)c2cccc(F)c2)cc(OC)c1OC ... ≥ 125 µM
COc1cc(NC(=O)Nc2cccc3cc[nH]c23)cc(OC)c1OC ... ≥ 125 µM

Next up:
Name the reported IC50 value associated with the compound COc1cc(NC(=O)Nc2ccc([N+](=O)[O-])cc2)cc(OC)c1OC 35 µM
